# Study Target: T1, BCMA expressed on cells (HEK-293T cells overexpressing BCMA; NCI-H929 tumor cells) (human, UniProt Q02223 1-184)
# T1 construct: whole, on cells; also called HEK-293T/BCMA cells; NCI-H929 cells
# T1 sequence (looked up): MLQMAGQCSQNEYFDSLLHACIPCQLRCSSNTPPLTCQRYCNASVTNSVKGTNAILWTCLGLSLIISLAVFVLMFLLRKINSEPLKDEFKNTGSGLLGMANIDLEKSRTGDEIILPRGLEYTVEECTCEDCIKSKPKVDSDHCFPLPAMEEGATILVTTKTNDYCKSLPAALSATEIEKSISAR
# Method Notes: flow cytometry on NCI-H929 cells
# maps each entry to its pEC50
As a rule, pEC50 stands for the negative log10 of the concentration, concentration in M.

Solved entries (count: 3):
binder="humanized anti-BCMA antibody Ab1 (antibody, human IgG1, kappa, V domains shown, Human IgG1/kappa, expressed in HEK293 cells) VH: QVQLVQSGAEVKKPGASVKVSCKASGYSFSDYEMHWVRQAPGQGLEWMGGIHPGSGGSAYNQKFKGRVTMTRDTSTSTVYMELSSLRSEDTAVYYCTRLDYGYSWAWFPYWGQGTLVTVSA VL: EIVLTQSPATLSLSPGERATLSCSASSSVIYMNWYQQKPGQAPRLLIYGISNLASGIPARFSGSGSGTDFTLTISSLEPEDFAVYYCQQRSSYPLTFGGGTKVEIKR" quantitative_result=8.34
binder="humanized anti-BCMA antibody Ab3 (antibody, human IgG1, kappa, V domains shown, Human IgG1/kappa, expressed in HEK293 cells) VH: QVQLVQSGAEVKKPGASVKVSCKASGYSFSDYEMHWVRQAPGQGLEWIGGIHPGSGGSAYNQKFKGKATLTVDKSTSTAYMELSSLRSEDTAVYYCTRLDYGYSWAWFPYWGQGTLVTVSA VL: EILLTQSPATLSLSPGERATLTCSASSSVIYMNWYQQKPGSSPKIWIYGISNLASGVPARFSGSGSGTSFTLTISSLEPEDFAVYYCQQRSSYPLTFGGGTKVEIKR" quantitative_result=8.41
binder="murine monoclonal antibody M1 (antibody, V domains shown, It is a hybridoma-derived murine antibody, yet the ELISA protocol names a goat-anti-human secondary antibody; also called murine antibody M1) VH: QVQLQQSGAELVRPGASVKLSCKALGYSFSDYEMHWVRQTPVHGLEWIGGIHPGSGGSAYNQKFKGKATLTVDKSSSTAYMELSSLTSEDSAVYYCTRLDYGYSWAWFPYWGQGTLVTVSA VL: EILLTQSPAIIVTSPGEKVTITCSASSSVIYMNWYQQKPGSSPKIWIYGISNLASGVPARFSGSGSGTSFSFTINSMEAEDVATYYCQQRSSYPLTFGAGTKLELK" quantitative_result=6.89

-- ask Field request: pEC50 | item: humanized anti-BCMA antibody Ab2 (antibody, human IgG1, kappa, V domains shown, Human IgG1/kappa, expressed in HEK293 cells) VH: QVQLVQSGAEVKKPGASVKVSCKASGYSFSDYEMHWVRQAPGQGLEWIGGIHPGSGGSAYNQKFKGRVTLTVDKSTSTAYMELSSLRSEDTAVYYCTRLDYGYSWAWFPYWGQGTLVTVSA VL: EIVLTQSPATLSLSPGERATLSCSASSSVIYMNWYQQKPGQSPKIWIYGISNLASGVPARFSGSGSGTDFTLTISSLEPEDFAVYYCQQRSSYPLTFGGGTKVEIKR
-- reply 8.46
